In this section we review reported GI50 values for a set of compounds.
Tested on: ACHN renal
Test description: NCI tumour cell line growth inhibition, 48 h

INSERT INTO measurements (structure_string, observed) VALUES
  ('COC(=O)[C@@]1(C)CCC[C@]2(C)[C@H]3Cc4occc4[C@H](C)[C@@H]3CC[C@@]12O', '17.8 µM'),
  ('O=C1CCc2c(Oc3ccc4c(c3)[C@H]3[C@@H](O4)[C@@H]3c3nc4ccc(C(F)(F)F)cc4[nH]3)ccnc2N1', '0.711 µM');

The recorded GI50 for entry COc1ccc(OC)c(/C=C/C(=O)N/N=C/c2ccccc2)c1 equals 9.66 µM

Sure, the documented GI50 for S=c1ssnc1-c1ccccn1 is 2.25 µM

The measured GI50 associated with CCN(Cc1ccccn1)c1ccc(CO)c(Cl)c1 reads > 100 µM

According to the records, this compound Nc1nc(/C=C\c2ccc([N+](=O)[O-])s2)nc(N2CCOCC2)n1 displays GI50 of 5.06 µM

The measured GI50 associated with COc1cc2c(cc1O)CC[C@@H]1[C@@H]2CC[C@]2(C)[C@@H](OCCCN(C)C)CC[C@@H]12 reads 0.164 µM

Value of GI50 reported for the compound COc1cc(-c2nn(-c3ccc(NC(=O)NCCNS(=O)(=O)c4ccc(F)cc4)cc3)cc2-c2ccncc2)ccc1Cl is 2.21 µM

GI50 reading for C=C1C(=O)O[C@@H]2[C@@H]3O[C@@H](C[C@@H]13)[C@](C)(O)CC/C=C(\C)CCC[C@H]2C : 0.926 µM

----------
Test system: HCC-2998 colon
Test description: NCI tumour cell line growth inhibition, 48 h; in the data active means GI50 below about 0.43 µM; inactive means the rest
Hello, when you answer, please use one of the following outcomes: yes (active), no (inactive)

Answered examples (7):
INSERT INTO results (compound, system_under_test, class_assignment) VALUES
  ('CCCC(=O)OCC1OC(n2cnc3c(=S)nc(N)[nH]c32)C(OC(=O)CCC)C1OC(=O)CCC (stereo not drawn)', 'HCC-2998 colon', 'no'),
  ('C#C[C@@]1(O)[C@@H](CO)O[C@@H](n2cc(Br)c3c(N)ncnc32)[C@@H]1O', 'HCC-2998 colon', 'yes'),
  ('CN1C[C@@H](c2ccc(Cl)cc2)[C@]2(NC(=S)N(c3ccc(F)c(Cl)c3)C2=O)[C@@]12C(=O)NC1C=CC(Cl)=C[C@H]12 (stereo partly drawn)', 'HCC-2998 colon', 'no'),
  ('C=CC(C)c1cccc(C=O)c1O (stereo not drawn)', 'HCC-2998 colon', 'no'),
  ('CCn1nc(-c2ccc(C(=O)OC)cc2)nc2c(=O)n(C)c(=O)nc1-2', 'HCC-2998 colon', 'no'),
  ('NC(=O)c1c(Br)n(C2OC(CO)C(O)C2O)c2ncnc(N)c12 (stereo not drawn)', 'HCC-2998 colon', 'no'),
  ('O=C(/C=C\Sc1ccccn1)c1cccc(Br)c1', 'HCC-2998 colon', 'no');

Now examine the next entry.
Task item: Just curious, what result did N#Cc1cnc(=O)n(C2CC(O)C(CO)O2)c1 (stereo not drawn) get here?
Reply: no

----------
Test system: A498 renal
Test description: NCI tumour cell line growth inhibition, 48 h; in the data active = GI50 below about 0.43 µM; inactive = the rest
Mark one answer only. Choices: 1 for active, -1 for inactive

Example cases with answers are listed next.
INSERT INTO results (structure_string, class_assignment) VALUES
  ('COc1ccc2c(c1)O/C(=C\c1ncc([N+](=O)[O-])n1C)C2=O', -1),
  ('NCCNC1=CC(=O)c2nc3ccccc3c3ccnc1c23', -1);

Task item: // return assay outcome for COc1cc2c(cc1O)CC[C@@H]1[C@@H]2CC[C@]2(C)[C@@H](OCCCN(C)C)CC[C@@H]12
Reply: 1

Task item: Tell me the assay call for O=C1OCC(C#Cc2ccccc2)=C1Br please.
Reply: -1

----------
Test system: MOLT-4 leukemia
Test description: NCI tumour cell line growth inhibition, 48 h; in the data active means GI50 below about 0.43 µM; inactive means the rest
Pick one: label 1 for active, label 0 for inactive

INSERT INTO results (structure_string, system_under_test, class_assignment) VALUES
  ('CC(=O)Nc1c(Br)cc2c(c1Br)Cc1cc(Br)ccc1-2', 'MOLT-4 leukemia', 'label 0');

Task item: Fill in: this test's call for COc1ccc(OC)c(/C=C/C(=O)N/N=C/c2ccccc2)c1 is ___
Reply: label 0

Task item: Record lookup: outcome of this test for CC(C)N(Cc1c(F)cccc1F)c1ccc(CO)c(Cl)c1 ?
Reply: label 0

Task item: Assay outcome for ClC(Cl)c1nc(-c2ccccc2)n2nc(-c3ccccc3)cc2n1 : what was it?
Reply: label 0

Task item: Identify the outcome logged in this assay for the compound shown: O=S(=O)(Nc1ccc(Cl)c(F)c1)c1ccc(-c2cnc(C3CC3)o2)cc1
Reply: label 0

Task item: Answer briefly: the call reported for O=[N+]([O-])c1cccc2nc3ccccc3c(NCCN(CCO)CCO)c12 in this assay.
Reply: label 1

----------
Tested on: SF-295 CNS
Test description: NCI tumour cell line growth inhibition, 48 h; in the data active means GI50 below about 0.43 µM; inactive means the rest
Your answer must be one of the following: T (active), F (inactive)

Task item: What is the recorded call for this compound in the test? COc1ccc(OC)c(/C=C/C(=O)N/N=C/c2ccccc2)c1
Reply: F

Task item: What was the test verdict on COc1cc2c(cc1O)CC[C@@H]1[C@@H]2CC[C@]2(C)[C@@H](OCCCN(C)C)CC[C@@H]12 ?
Reply: T

Task item: Call for entry ClC(Cl)c1nc(-c2ccccc2)n2nc(-c3ccccc3)cc2n1 :
Reply: F

Task item: Test call for this compound, please: COc1ccc(-c2nc3c(-c4ccccc4)nc(-c4ccccc4)cn3c2-c2ccc(OC)cc2)cc1
Reply: F

Task item: What classification did COc1cccc(/C=C2\COc3ccc(O)c(O)c3C2=O)c1 end up with in this test?
Reply: F

Task item: Assay result, entry C=C1C(=O)O[C@@H]2[C@@H]3O[C@@H](C[C@@H]13)[C@](C)(O)CC/C=C(\C)CCC[C@H]2C — outcome?
Reply: F

Task item: Given C=CC(C)c1cccc(C=O)c1O (configuration not stated) , state the outcome it received in this test.
Reply: F

Task item: Answer briefly: the call reported for O=C1CCc2c(Oc3ccc4c(c3)[C@H]3[C@@H](O4)[C@@H]3c3nc4ccc(C(F)(F)F)cc4[nH]3)ccnc2N1 in this assay.
Reply: F

Task item: Could you kindly confirm the outcome this assay logged for O=S(=O)(Nc1ccc(Cl)c(F)c1)c1ccc(-c2cnc(C3CC3)o2)cc1 ?
Reply: T

Task item: Fill in: this test's call for CC(C)OP(=O)(OC(C)C)c1ncc(-c2ccc(C(F)(F)F)cc2)c(NC2CCCCCC2)n1 is ___
Reply: F

Task item: Recorded test outcome, item N#C/C(=C1C=C/C(=N/O)C(Cl)=C/1)c1ccc(Cl)cc1
Reply: F

Task item: Fill in: this test's call for O=C(Nc1ccc(F)cc1F)c1cc(F)ccc1O is ___
Reply: F

Task item: Can you look up the reported call for COC(=O)C1=C(C(=O)OC)SC(=C(Cl)C(=S)Oc2ccccc2N)S1 for me?
Reply: F

Task item: Fill in: this test's call for O=C(/C=C\Sc1ccccn1)c1cccc(Br)c1 is ___
Reply: F

Task item: Hi, do you know how COC(=O)[C@@]1(C)CCC[C@]2(C)[C@H]3Cc4occc4[C@H](C)[C@@H]3CC[C@@]12O came out in this test?
Reply: F

Task item: Field: outcome | Entry: CC(=O)Nc1c(Br)cc2c(c1Br)Cc1cc(Br)ccc1-2
Reply: F

Task item: Per the records of this test, what outcome belongs to CN1C[C@@H](c2ccc(Cl)cc2)[C@]2(NC(=S)N(c3ccc(F)c(Cl)c3)C2=O)[C@@]12C(=O)NC1C=CC(Cl)=C[C@H]12 (some centres not stated) ?
Reply: F

----------
Test system: T-47D breast
Test description: NCI tumour cell line growth inhibition, 48 h
Parameter: TGI (µM)
Numeric only. Scale: µM

Entry O=C1CCC/C=C\C[C@H]2C=CC(=O)/C2=C/C[C@H](CCc2cccc(C(F)(F)F)c2)O1 , TGI reported as 7.12

Value of TGI reported for the molecule COc1ccc(Nc2nc3cc(C(F)(F)F)ccc3n3cccc23)cc1OC is 34.9

# TGI (molecule: COc1ccc2c(c1)c1c(C)c3cnccc3c(C)c1n2CCCN ) is 0.76

Please fill in: TGI reported for O=C(NC1CCCCC1)OCc1c(COC(=O)NC2CCCCC2)c(-c2ccc(Cl)c(Cl)c2)n2c1CCC2 = 19.5

----------
System: IGROV1 ovarian
Test description: NCI tumour cell line growth inhibition, 48 h
Item-by-item account of TGI

Worked cases, answers included:
INSERT INTO assay_data (molecule, parameter, observed) VALUES
  ('O=C1C(Cl)C(c2cc(Br)ccc2O)N1n1cnc2ccccc2c1=O (stereo not given)', 'TGI', '> 92.7 µM'),
  ('Cc1noc(C)c1-n1nc2ccc3nonc3c2n1', 'TGI', '> 100 µM'),
  ('COc1ccc(/C=c2/s/c(=C(\C#N)c3nc4ccccc4[nH]3)n(-c3ccccc3)c2=O)cc1', 'TGI', '> 100 µM'),
  ('COc1ccc(Nc2nc3cc(C(F)(F)F)ccc3n3cccc23)cc1OC', 'TGI', '> 100 µM');

According to the records, this molecule COc1ccc([C@H]2CC(=O)C[C@H](c3ccc(OC)cc3OC)C23C(=O)c2ccccc2C3=O)c(OC)c1 displays TGI of > 100 µM
